- target: Nuclear receptor ROR-gamma (Homo sapiens, UniProt P51449)
- Sequence (P51449 whole entry): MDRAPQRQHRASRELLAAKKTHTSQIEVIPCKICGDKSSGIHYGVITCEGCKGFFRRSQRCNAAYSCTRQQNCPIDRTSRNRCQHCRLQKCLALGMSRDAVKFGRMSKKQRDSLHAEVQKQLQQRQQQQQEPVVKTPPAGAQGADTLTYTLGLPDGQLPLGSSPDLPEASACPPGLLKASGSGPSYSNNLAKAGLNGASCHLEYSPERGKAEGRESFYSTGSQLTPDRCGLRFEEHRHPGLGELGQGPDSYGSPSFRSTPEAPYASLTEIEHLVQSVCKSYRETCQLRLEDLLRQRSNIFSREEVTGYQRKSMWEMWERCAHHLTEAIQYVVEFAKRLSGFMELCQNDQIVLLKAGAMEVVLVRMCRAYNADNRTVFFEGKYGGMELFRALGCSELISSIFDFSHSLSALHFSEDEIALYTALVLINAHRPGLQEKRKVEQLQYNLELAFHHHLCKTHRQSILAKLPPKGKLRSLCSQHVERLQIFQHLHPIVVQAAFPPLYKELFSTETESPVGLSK
- method-description: RORgammat 5xRORE Assay in Jurkat Cells (Assay 2) : Compounds of the present invention were tested for RORγ inverse agonist activity in a cell-based, transcriptional activity assay. […] (Promega, Cat. # N1021) using KpnI and HindIII restriction sites. […] Luciferase activity in the conditioned supernatants was determined with NanoGlo® assay reagents (Promega, Cat. # N1130).
property-label: IC50

Ask: Entry CCS(=O)(=O)c1ccc(CNC(=O)c2cnc3c(c2)C(=O)N(Cc2ccc(Cl)cc2)[C@H]3C(C)C)cc1 has what IC50?
Reply: 100 to 1000 nM
